The following compounds are listed with their measured T/C values.
System: P388 leukemia ip, CD2F1 mice, survival T/C
ASSAY COMMENT: NCI In Vivo Anticancer Drug Screen. Data for tumor model P388 Leukemia (intraperitoneal) in CD2F1 (CDF1) mice
MEASUREMENT CONDITIONS: endpoint: median survival time; dose: 100.0 mg/kg/injection; schedule: Q01DX009 (ip); vehicle: Klucel (hydroxypropylcellulose) (HPC); higher = longer survival
Toxic doses and inconclusive results are not listed.

{"COMPOUND": "CN1C(=O)C(=O)N(CCCN2CCN(CCCN3C(=O)C(=O)N(C)C3=O)CC2)C1=O", "ASSAY TARGET": "P388 leukemia ip, CD2F1 mice, survival T/C", "T/C": "106 % of control"}
{"COMPOUND": "CN(N)c1nnnn1-c1ccccc1", "ASSAY TARGET": "P388 leukemia ip, CD2F1 mice, survival T/C", "T/C": "117 % of control"}
{"COMPOUND": "N#CC12CCCCC1CCC1(C2)OCCO1 (stereo unspecified)", "ASSAY TARGET": "P388 leukemia ip, CD2F1 mice, survival T/C", "T/C": "100 % of control"}
{"COMPOUND": "C=CCSc1nc2ccc(N3C(=O)C4C5C=CC(C5)C4C3=O)cc2s1 (stereo unspecified)", "ASSAY TARGET": "P388 leukemia ip, CD2F1 mice, survival T/C", "T/C": "92 % of control"}
{"COMPOUND": "CCCCCCCCCCCCCCCCOC(=O)c1ccc(O)cc1", "ASSAY TARGET": "P388 leukemia ip, CD2F1 mice, survival T/C", "T/C": "92 % of control"}

Field: next compound
Task item: What value of measured T/C is listed for "S=c1[nH]c2ccc(Cl)cc2s1" ?
Reply: 101 % of control
